procedure.summary: binders of probe aFGF10 on microarray, primary screen, stem cell growth factor project, biochemical, small-molecule microarray, fluorescence 635/667 (AID 1071);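 note: score merges 667 nm spot intensity and signal to noise from triplicate slides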
condition.description: higher = more signal

compound	composite z-score
O=C1O[C@H](c2ccccc2)[C@H](c2ccccc2)N2[C@H]1[C@@H](C(=O)Nc1nc3ccccc3s1)[C@]1(C(=O)Nc3ccc(C#CCCO)cc31)[C@H]2c1ccc(O)cc1	1.01
CCOC(=O)C[C@H]1[C@H](OC(=O)c2ccccc2-c2ccccc2)[C@@H](NC(=O)c2ccc(-c3ccccc3)cc2)c2cc(OCCCO)ccc2N1C(=O)c1ccc2ccccc2n1	0.754
Cc1ccccc1C(O)C1C=CC2C(=O)N(C)C(=O)C2N1N(c1ccccc1)c1ccccc1 (centres undefined)	0.113
CC(C)(C)OC(=O)CC[C@]1(C(=O)NCc2ccccc2)N=C(c2ccc(OCCCO)cc2)O[C@H]1c1ccccc1CN=[N+]=[N-]	0.618
CC1=C[C@@]2(CO)C(=O)[C@]3(CO3)[C@@H]1[C@H]1[C@]2(C)C=C(CO)C(=O)[C@]12CO2	0.345
CN(C)C(=O)[C@@]1(CCS(=O)(=O)c2ccccc2)N=C(c2ccc(OCCCO)cc2)O[C@H]1c1ccccc1	0.746
Cc1cc(C)c(C(O)C2C=CC3C(=O)N(c4ccccc4)C(=O)C3N2Nc2ccc(C(C)C)cc2)c(C)c1 (centres undefined)	0.941
C=CCNC(=O)[C@H]1[C@@H]2C(=O)O[C@@H](c3ccccc3)[C@@H](c3ccccc3)N2[C@@H](c2ccc(O)cc2)[C@]12C(=O)N(C(=O)OCCOC)c1ccccc12	1.16
CN1C(=O)C2C=CC(C(O)c3ccccn3)N(N(c3ccccc3)c3ccccc3)C2C1=O (centres undefined)	0.0491
COc1ccc([Si](C)(C)[C@@H]2[C@@H](CC(=O)N(CCO)Cc3ccccc3)O[C@]3(C(=O)N(c4ccccc4)c4ccccc43)[C@H]2C)cc1	0.276
CCCC[C@@H]1C[C@H]1[C@@H](NC(=O)c1ccccc1)c1ccc(C(F)(F)F)cc1	-0.333
Cc1ccc(S[C@]2(C(=O)O)CC(=O)N(C3Cc4ccccc4C3)[C@@H]2c2ccc(CO)cc2)cc1	-0.179
CCOC(=O)c1ccc(NC(=O)O[C@H]2[C@H](OC(=O)Nc3ccc4c(c3)OCO4)[C@@H](OC(=O)Nc3ccc4c(c3)OCO4)[C@@H](OC)O[C@@H]2CO)cc1	1.03
CC(C)[Si](C#C[Si](C(C)C)(C(C)C)C(C)C)(O[C@H](C)c1cn([C@H](CO)Cc2ccccc2)nn1)C(C)C	0.215
O=C1N(Cc2ccccc2)Cc2ccccc2[C@@H]2OC(c3ccc(OCCCO)cc3)=N[C@]12CCS(=O)(=O)c1ccccc1	0.379
CC(CO)N1C(=O)[C@@H]2[C@H]3C(=O)OCC=C[C@H]3OC23C=CCN(Cc2ccccc2)C(=O)[C@@H]13 (some centres undefined)	-0.166
CCCC[C@@H]1C[C@H]1[C@@H](NC(=O)Cc1ccccc1)c1ccc(-c2ccccc2)cc1	-0.165
CC(C)OC(=O)C=C1C[C@@H](c2ccc(C(F)(F)F)cc2)O[C@@H](c2ccc(C(F)(F)F)cc2)O1	0.891
O=C(CS)NCCCCCNC(=O)[C@@H]1C[C@@H]2C(=O)N3CCC[C@H]3C(=O)N2[C@@H]1c1cccc(OCCO)c1	0.051
N#Cc1ccc(NN2C(C(O)c3ccc(F)cc3)C=CC3C(=O)N(c4ccccc4)C(=O)C32)cc1 (centres undefined)	-0.0175
C=CCC(OC(C)=O)[C@@H]1[C@@H](N(Cc2cc3ccccc3o2)C(=O)c2ccc(C)cc2)c2cc(OCCCO)ccc2N1C(=O)Cc1ccc(OC)cc1 (some centres undefined)	-0.0177
Cc1ccc(S[C@]2(C(=O)NCCCN(C)C)CC(=O)N(C3CCCCC3)[C@@H]2c2ccc(CO)cc2)cc1	-0.418
NCCCCCNC(=O)[C@@H]1C[C@@H]2C(=O)NCC(=O)N2[C@@H]1c1cccc(OCCO)c1	0.773
COc1ccc([Si](C)(C)[C@H]2[C@H](CCn3cc([C@H](O)c4ccccc4)nn3)O[C@@]3(C(=O)N(Cc4ccc(N5C(=O)c6cccc7cccc5c67)cc4)c4ccccc43)[C@@H]2C)cc1	0.595
CCCCC=C[C@@H](NC(=O)c1ccc(-c2ccccc2)cc1)c1ccccc1	0.457
CC(C)Cc1ccc(CN2CC[C@@H](NC(=O)Nc3ccccc3)C2)cc1	0.118
O=C1OCC=C[C@H]2OC34C=CCN(c5ccc(Cl)cc5)C(=O)[C@H]3N(CCO)C(=O)[C@@H]4[C@@H]12 (some centres undefined)	-0.0609
COC(=O)C(CC#Cc1ccc2c(c1)[C@]1(C(=O)N2)[C@H](c2ccccc2OCCO)N2[C@H](c3ccccc3)[C@H](c3ccccc3)OC(=O)[C@H]2[C@@H]1C(=O)NC[C@H](O)c1ccccc1)C(=O)OC	0.767
COc1ccc([Si](C)(C)[C@H]2[C@H](CC(=O)N(CCO)Cc3ccccc3)O[C@@]3(C(=O)N(Cc4cccc(N5CCOC5=O)c4)c4ccccc43)[C@@H]2C)cc1	0.171

Where these numbers come from: PubChem BioAssay
